- assay system: Recombinant Human Poly(ADP-Ribose) Polymerase (PARP), PARP-1 (Homo sapiens (Human), UniProt P09874)
- Sequence (P09874 whole entry): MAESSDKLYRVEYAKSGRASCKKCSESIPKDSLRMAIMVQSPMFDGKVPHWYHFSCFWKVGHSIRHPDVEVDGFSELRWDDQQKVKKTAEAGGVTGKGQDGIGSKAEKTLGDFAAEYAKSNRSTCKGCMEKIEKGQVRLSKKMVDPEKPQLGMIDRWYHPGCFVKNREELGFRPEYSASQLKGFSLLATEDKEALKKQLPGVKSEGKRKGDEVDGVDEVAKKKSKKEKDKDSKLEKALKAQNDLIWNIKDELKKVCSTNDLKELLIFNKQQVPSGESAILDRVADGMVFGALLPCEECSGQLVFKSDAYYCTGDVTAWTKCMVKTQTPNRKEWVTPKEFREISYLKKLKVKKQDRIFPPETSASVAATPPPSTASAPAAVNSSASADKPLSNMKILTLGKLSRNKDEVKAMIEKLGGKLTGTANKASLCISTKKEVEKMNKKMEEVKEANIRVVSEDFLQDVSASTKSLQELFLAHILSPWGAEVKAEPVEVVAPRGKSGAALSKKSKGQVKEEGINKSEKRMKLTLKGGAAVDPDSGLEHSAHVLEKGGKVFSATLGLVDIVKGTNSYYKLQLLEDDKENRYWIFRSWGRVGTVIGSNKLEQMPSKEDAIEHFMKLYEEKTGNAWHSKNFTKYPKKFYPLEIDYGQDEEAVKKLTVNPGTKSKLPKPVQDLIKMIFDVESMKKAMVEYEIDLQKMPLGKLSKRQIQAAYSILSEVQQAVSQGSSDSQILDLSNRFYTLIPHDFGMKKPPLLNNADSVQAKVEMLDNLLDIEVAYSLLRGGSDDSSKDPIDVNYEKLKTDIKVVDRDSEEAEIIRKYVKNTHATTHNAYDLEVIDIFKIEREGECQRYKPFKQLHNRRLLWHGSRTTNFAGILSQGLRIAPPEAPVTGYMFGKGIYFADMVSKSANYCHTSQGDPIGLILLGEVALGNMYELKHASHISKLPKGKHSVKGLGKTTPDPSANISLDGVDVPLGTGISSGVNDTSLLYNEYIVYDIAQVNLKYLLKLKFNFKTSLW
- condition label: read-out: PARP-1 (Ki); Table 1; text calls the values EC50s
Give Ki for every item shown.
Numbers only, in nM.

Example entries begin here.
[
  {
    "compound": "Cc1nc2cc(C(=O)N3CCN(C(=O)c4cc(Cc5n[nH]c(=O)c6c5CCCC6)ccc4F)CC3)ccc2[nH]1",
    "val": 0.6
  },
  {
    "compound": "O=C1CC[C@@H](C(=O)Nc2cccc(Cc3n[nH]c(=O)c4c3CCCC4)c2)N1",
    "val": 206
  },
  {
    "compound": "O=C(Nc1ccccc1Nc1ccccc1)c1cccc(Cc2n[nH]c(=O)c3c2CCCC3)c1",
    "val": 316
  }
]

Below are some compounds; for each one, tell me its Ki.
1. CC(C)n1c(C(F)(F)F)nc2cc(C(=O)N3CCN(C(=O)c4cc(Cc5n[nH]c(=O)c6c5NCCC6)ccc4F)CC3)ccc21
2. Cc1ccc(CCNC(=O)c2cccc(Cc3n[nH]c(=O)c4c3CCCC4)c2)cc1C
3. CC1CC1C(=O)Nc1cccc(Cc2n[nH]c(=O)c3c2CCCC3)c1 (stereo not drawn)

1. 1.7
2. 50
3. 69

// each listed compound needs a value for Ki
1. O=C(Nc1cccc2c(O)cccc12)c1cccc(Cc2n[nH]c(=O)c3c2CCCC3)c1
2. O=C(Nc1cccc(Cc2n[nH]c(=O)c3c2CCCC3)c1)c1cc(C(F)(F)F)ccc1F
3. O=C(c1cc(Cc2n[nH]c(=O)c3c2CCCC3)ccc1F)N1CCN(c2ccc(F)cc2)CC1

1. 45
2. 31
3. 4

Taken from patent US9283222B2.
